Test: self-splicing fitness, log relative to wild type (ln ratio); higher = more splicing; Tetrahymena group I intron in knt gene, E. coli kanamycin selection, DiMSum; sequences stand for … in CUCUCU…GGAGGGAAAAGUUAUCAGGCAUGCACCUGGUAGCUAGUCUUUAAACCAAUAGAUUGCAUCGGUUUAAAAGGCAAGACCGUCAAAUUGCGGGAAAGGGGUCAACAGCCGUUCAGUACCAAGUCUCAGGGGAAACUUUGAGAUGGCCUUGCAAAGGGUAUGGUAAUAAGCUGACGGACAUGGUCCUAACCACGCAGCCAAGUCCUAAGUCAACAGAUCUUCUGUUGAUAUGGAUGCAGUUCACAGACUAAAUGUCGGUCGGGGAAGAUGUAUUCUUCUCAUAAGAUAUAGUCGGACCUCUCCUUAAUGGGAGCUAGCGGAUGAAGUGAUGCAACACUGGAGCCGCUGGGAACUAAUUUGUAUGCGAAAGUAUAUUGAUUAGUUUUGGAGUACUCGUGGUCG;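 also: selection with 25 µg/mL kanamycin versus none on LB agar overnight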
Conditions: 30 °C
If the reported self-splicing fitness (ln) equals or exceeds -3, assign rule met. If not, assign rule not met.

A selection of reference data follows.
macromolecule_sequence=UUACAGCAAUAUUACGCGUC assigned_label="rule not met"
macromolecule_sequence=UCCUAGCAAUAUUACGGGAU assigned_label="rule not met"
macromolecule_sequence=UCACAGCAAUAUUACGGAAA assigned_label="rule not met"

Read the next record carefully.
Prompt: Reported self-splicing fitness (ln) at or above -3? CAUCAGCAAUAUUACGAUGU
Response: rule not met

Value source: the supplement of paper PMC7877785
